// each record: one item and its IC50 for VEGFR3 (Homo sapiens, UniProt P35916)
Answers are plain numbers, in nM.

| Input smiles | Reading unit | IC50 |
| --- | --- | --- |
| COc1cc2ncnc(Oc3ccc(NC(=O)NC4CCC4)cc3)c2cc1OC | nM | 16 |

Now consider a different molecule.
Ask: # get_value(readout='IC50', item= COc1cc2ncnc(Oc3ccc(NC(=O)N4CCCC4)cc3)c2cc1OC )
Reply: 213

====

// each record: one item and its pIC50 for RET (Homo sapiens)
Answers are plain numbers, as −log10 of the molar value.

| Compound | Target or system | Value |
| --- | --- | --- |
| C=CNC(=O)Nc1ccc(Oc2ncnc3cc(OC)c(OC)cc23)cc1 [Compound I-4] | RET (Homo sapiens) | 7.59 |

Now consider a different compound.
Ask: Test system RET (Homo sapiens); read-out pIC50; what value for COc1cc2ncnc(Oc3ccc(NC(=O)NC4CCCC4)cc3)c2cc1OC [Compound I-3] ?
Reply: 7.07

Sourced from patent US12201635B2
